meta.source: patent US6242433A

Tested on: normal diploid fibroblast cells MRC-5
test-protocol: citotoxicity on normal diploid fibroblast cells MRC-5 from human lung
Assay type: cell-based
conditions-used: Homo sapiens, MRC5; Table 2; MRC-5; read-out: IC50 (50% growth inhibition)
assay-readout: pIC50
// returns pIC50 (minus log10 of molar concentration), number only

- molecule: "CC(C)=CCC/C(C)=C/CC/C(C)=C/CC/C(C)=C/CONC(=O)CP(=O)(O)O [BAL9504]"
  assay-readout: "pIC50"
  result-value: 4.26

Consider the additional molecule presented here.
Prompt: What value of measured pIC50 is listed for CC(C)=CCC/C(C)=C/CC/C(C)=C/CC/C(C)=C/COC(=O)NS(N)(=O)=O [BAL9503] ?
Response: 3.59
